Values compiled from patent US20180000085A1.

Test system: Puccinia triticina
Test: Wheat brown rust (PUCCRT) disease control on wheat seedlings
Type: in vivo
Conditions: high volume application, 100 ppm, 3DC
measurement-label: PUCCRT 3DC, HV activity at 100 ppm (% control rating)

For orientation, consider the following solved cases.
CC[C@H](Cc1ccccc1)[C@@H](OCC(C)C)[C@H](C)OC(=O)[C@H](C)NC(=O)c1nccc(OC)c1O [Cmpd 293]: B (≤ 80)
CCCOC(CC)C(Oc1ccccc1)C(C)OC(=O)C(C)NC(=O)c1nccc(OC)c1O (stereo not drawn) [Cmpd 295]: B (≤ 80)
CCCOC(CC)C(Oc1ccccc1)C(C)OC(=O)C(C)NC(=O)c1nccc(OC)c1O (stereo not drawn) [Cmpd 289]: A (> 80)
CCCOC(CC)C(Oc1ccccc1)C(C)OC(=O)C(CC)NC(=O)c1nccc(OC)c1O (stereo not drawn) [Cmpd 296]: A (> 80)
CCCOC(CC)C(Oc1ccccc1)C(C)OC(=O)C(CC(C)C)NC(=O)c1nccc(OC)c1O (stereo not drawn) [Cmpd 291]: D

Consider the additional molecule presented here.
Name the recorded PUCCRT 3DC, HV activity at 100 ppm (% control rating) for CCCOC(CC)C(Oc1ccccc1)C(C)OC(=O)C(NC(=O)c1nccc(OC)c1O)C(C)C (stereo not drawn) [Cmpd 290] .
B (≤ 80)
